experiment: folding enthalpy; higher = less favourable; fluorescence melt of hairpins on a sequencing array, two-state fit; settings: sodium 0.088 M
endpoint_name: folding enthalpy
Answer format reminder: number followed by unit.

Use these answered entries as a reference point.
GAGTACGAAAGTATACTC ((((((....)))..))) = -82.3 kJ/mol
GATCGTGACCACGATC ((((((....)))))) = -162 kJ/mol
GATCCAGTCTGGATC ((((((...)))))) = -159 kJ/mol

## Input Could you tell me which folding enthalpy is on file for GGACCTCCGAAAGGATCC (((..(((....)))))) ?
## Output -55.9 kJ/mol

## Input Also GGAAGCGGAAACGCTTTC (.(((((....))))).) ?
## Output -88.8 kJ/mol

## Input Another sequence to check: GTCCGTGGAAACACGGGC (.(((((....))))).)
## Output -101 kJ/mol

## Input Could you do the same for GTTAAGGGAAACCCTAAC ((((.((....)).)))) , please?
## Output -59.5 kJ/mol

## Input Okay, and GATCTGTTCTCAGATC ((((((....)))))) ?
## Output -173 kJ/mol

## Input Field entry: GTGCTACGAAAGTAACAC (((.(((....))).)))
## Output -137 kJ/mol

## Input Now the sequence GATCCGAACGCGGATC ((((((....))))))
## Output -166 kJ/mol

## Input Follow-up item: GCTACCGAAAGGTTAGC ((((((....))).)))
## Output -117 kJ/mol

## Input Subsequent entry: GTCCGGGGAAACCCGAAC ((.((((....)))).))
## Output -77.5 kJ/mol

## Input Would you mind doing GATCTGGTCCAGATC ((((((...)))))) as well?
## Output -140 kJ/mol

## Input What would you report for GTATAGGGAAACTTATAC (((((.(....).))))) ?
## Output -59.6 kJ/mol

## Input Lookup GGAGCCGAAAGGCCTTCC ((((((....)))..)))
## Output -64.5 kJ/mol
